Hey, just so you know, these numbers are from PubChem BioAssay AID1259407.

tested on: CCRIS mutagenicity, Ames/micronucleus/aberration tests; experiment: CCRIS mutagenicity studies; conditions: Test System: AMES SALMONELLA TYPHIMURIUM; Strain/Indicator: TA100; Metabolic Activation: NONE; Method: PREINCUBATION
The source made the active and inactive calls. The rule behind the calls is not given here.
Outcomes: 1 = active, -1 = inactive

- Molecule: "C/C=C/C=C/C"
  Label Class: -1
- Molecule: "O=[N+]([O-])c1ccc2c(c1)Oc1cc([N+](=O)[O-])ccc1O2"
  Label Class: -1
- Molecule: "CSC[C@H](NC(=O)C(C)(C)SC)C(=O)O"
  Label Class: -1
- Molecule: "Cc1ccc(S(=O)(=O)Oc2ccc(N=Nc3ccc(-c4ccc(N=Nc5c(O)ccc6cc(S(=O)(=O)O)cc(S(=O)(=O)O)c56)c(C)c4)cc3C)cc2)cc1"
  Label Class: -1
- Molecule: "CC(O)COC(C)(C)C (stereo unspecified)"
  Label Class: -1
- Molecule: "COS(=O)(=O)OC"
  Label Class: 1
- Molecule: "CC(=O)c1ccccc1"
  Label Class: -1
- Molecule: "Nc1ccc(Cc2ccc(N)cc2)cc1"
  Label Class: -1
- Molecule: "NCCNCCN"
  Label Class: -1
- Molecule: "O=C1c2c(O)cccc2Cc2cccc(O)c21"
  Label Class: -1
- Molecule: "O=C1OC(=O)c2c(Br)c(Br)c(Br)c(Br)c21"
  Label Class: -1
